- System: GnT-V (β1,6-N-acetylglucosaminyl transferase) (Homo sapiens)
- Construct: 73/60 kDa
- Assay Summary: GnT-V enzyme activity assay with fluorescence-labeled sugar acceptors, product separated by HPLC
- Type: biochemical
- Test Conditions: acceptor 70 μM; purified GnT-V 0.1 mg protein/ml; GnGn-bi-PA = 100
Measurement Label: Relative reaction rate
// response body must contain only the number

• CC(=O)N[C@H]1[C@H](O[C@@H]([C@H](O)[C@H](CNc2ccccn2)NC(C)=O)[C@H](O)CO)O[C@H](CO)[C@@H](O[C@@H]2O[C@H](CO[C@H]3O[C@H](CO)[C@@H](O)[C@H](O)[C@@H]3O[C@@H]3O[C@H](CO)[C@@H](O)[C@H](O)[C@H]3NC(C)=O)[C@@H](O)[C@H](O[C@H]3O[C@H](CO)[C@@H](O)[C@H](O)[C@@H]3O[C@@H]3O[C@H](CO)[C@@H](O)[C@H](O)[C@H]3NC(C)=O)[C@@H]2O)[C@@H]1O = 100

Then there is this compound:
compound "CC(=O)N[C@H]1[C@H](O[C@@H]([C@H](O)[C@H](CNc2ccccn2)NC(C)=O)[C@H](O)CO)O[C@H](CO)[C@@H](O[C@@H]2O[C@H](CO[C@H]3O[C@H](CO)[C@@H](O)[C@H](O)[C@@H]3O[C@@H]3O[C@H](CO)[C@@H](O)[C@H](O)[C@H]3NC(C)=O)[C@@H](O)[C@H](O[C@H]3O[C@H](CO)[C@@H](O[C@@H]4O[C@H](CO)[C@@H](O)[C@H](O)[C@H]4NC(C)=O)[C@H](O)[C@@H]3O[C@@H]3O[C@H](CO)[C@@H](O)[C@H](O)[C@H]3NC(C)=O)[C@@H]2O)[C@@H]1O" , Relative reaction rate observed: 125

---

- System: GnT-V (β1,6-N-acetylglucosaminyl transferase) (Homo sapiens, UniProt Q09328)
- Construct: 73/60 kDa
- Sequence (Q09328 31-741): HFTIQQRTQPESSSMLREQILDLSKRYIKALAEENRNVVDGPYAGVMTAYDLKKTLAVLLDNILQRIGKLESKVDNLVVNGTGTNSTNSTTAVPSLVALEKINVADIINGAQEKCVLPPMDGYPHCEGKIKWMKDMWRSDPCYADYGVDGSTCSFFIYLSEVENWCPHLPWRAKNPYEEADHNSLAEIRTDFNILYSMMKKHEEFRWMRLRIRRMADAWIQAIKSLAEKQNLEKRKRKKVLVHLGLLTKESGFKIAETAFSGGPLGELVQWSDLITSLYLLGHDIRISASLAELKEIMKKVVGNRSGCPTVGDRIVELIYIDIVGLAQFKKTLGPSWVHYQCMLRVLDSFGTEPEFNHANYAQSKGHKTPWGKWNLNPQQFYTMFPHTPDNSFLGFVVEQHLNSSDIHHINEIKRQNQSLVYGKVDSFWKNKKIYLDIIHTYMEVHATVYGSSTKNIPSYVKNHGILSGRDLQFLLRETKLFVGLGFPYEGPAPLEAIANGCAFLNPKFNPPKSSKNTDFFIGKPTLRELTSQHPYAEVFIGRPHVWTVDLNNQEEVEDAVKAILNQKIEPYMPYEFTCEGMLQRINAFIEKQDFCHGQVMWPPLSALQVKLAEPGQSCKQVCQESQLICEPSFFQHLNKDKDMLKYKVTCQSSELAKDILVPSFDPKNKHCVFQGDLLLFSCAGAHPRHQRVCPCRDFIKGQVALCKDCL
- Assay Summary: GnT-V enzyme activity assay with fluorescence-labeled sugar acceptors, product separated by HPLC
- Type: biochemical
- Test Conditions: substrate specificity
Measurement Label: reactivity relative to GnGn-bi-PA acceptor taken as 100%

compound "CC(=O)N[C@H]1[C@H](O[C@@H]([C@H](O)[C@H](CNc2ccccn2)NC(C)=O)[C@H](O)CO)O[C@H](CO)[C@@H](O[C@@H]2O[C@H](CO[C@H]3O[C@H](CO)[C@@H](O)[C@H](O)[C@@H]3O[C@@H]3O[C@H](CO)[C@@H](O)[C@H](O)[C@H]3NC(C)=O)[C@@H](O)[C@H](O[C@H]3O[C@H](CO)[C@@H](O)[C@H](O)[C@@H]3O[C@@H]3O[C@H](CO)[C@@H](O)[C@H](O)[C@H]3NC(C)=O)[C@@H]2O)[C@@H]1O" , reactivity relative to GnGn-bi-PA acceptor taken as 100% observed: 100%
